tested-target: human Nav1.7 (Homo sapiens (Human), UniProt Q15858)
Sequence (Q15858 whole entry): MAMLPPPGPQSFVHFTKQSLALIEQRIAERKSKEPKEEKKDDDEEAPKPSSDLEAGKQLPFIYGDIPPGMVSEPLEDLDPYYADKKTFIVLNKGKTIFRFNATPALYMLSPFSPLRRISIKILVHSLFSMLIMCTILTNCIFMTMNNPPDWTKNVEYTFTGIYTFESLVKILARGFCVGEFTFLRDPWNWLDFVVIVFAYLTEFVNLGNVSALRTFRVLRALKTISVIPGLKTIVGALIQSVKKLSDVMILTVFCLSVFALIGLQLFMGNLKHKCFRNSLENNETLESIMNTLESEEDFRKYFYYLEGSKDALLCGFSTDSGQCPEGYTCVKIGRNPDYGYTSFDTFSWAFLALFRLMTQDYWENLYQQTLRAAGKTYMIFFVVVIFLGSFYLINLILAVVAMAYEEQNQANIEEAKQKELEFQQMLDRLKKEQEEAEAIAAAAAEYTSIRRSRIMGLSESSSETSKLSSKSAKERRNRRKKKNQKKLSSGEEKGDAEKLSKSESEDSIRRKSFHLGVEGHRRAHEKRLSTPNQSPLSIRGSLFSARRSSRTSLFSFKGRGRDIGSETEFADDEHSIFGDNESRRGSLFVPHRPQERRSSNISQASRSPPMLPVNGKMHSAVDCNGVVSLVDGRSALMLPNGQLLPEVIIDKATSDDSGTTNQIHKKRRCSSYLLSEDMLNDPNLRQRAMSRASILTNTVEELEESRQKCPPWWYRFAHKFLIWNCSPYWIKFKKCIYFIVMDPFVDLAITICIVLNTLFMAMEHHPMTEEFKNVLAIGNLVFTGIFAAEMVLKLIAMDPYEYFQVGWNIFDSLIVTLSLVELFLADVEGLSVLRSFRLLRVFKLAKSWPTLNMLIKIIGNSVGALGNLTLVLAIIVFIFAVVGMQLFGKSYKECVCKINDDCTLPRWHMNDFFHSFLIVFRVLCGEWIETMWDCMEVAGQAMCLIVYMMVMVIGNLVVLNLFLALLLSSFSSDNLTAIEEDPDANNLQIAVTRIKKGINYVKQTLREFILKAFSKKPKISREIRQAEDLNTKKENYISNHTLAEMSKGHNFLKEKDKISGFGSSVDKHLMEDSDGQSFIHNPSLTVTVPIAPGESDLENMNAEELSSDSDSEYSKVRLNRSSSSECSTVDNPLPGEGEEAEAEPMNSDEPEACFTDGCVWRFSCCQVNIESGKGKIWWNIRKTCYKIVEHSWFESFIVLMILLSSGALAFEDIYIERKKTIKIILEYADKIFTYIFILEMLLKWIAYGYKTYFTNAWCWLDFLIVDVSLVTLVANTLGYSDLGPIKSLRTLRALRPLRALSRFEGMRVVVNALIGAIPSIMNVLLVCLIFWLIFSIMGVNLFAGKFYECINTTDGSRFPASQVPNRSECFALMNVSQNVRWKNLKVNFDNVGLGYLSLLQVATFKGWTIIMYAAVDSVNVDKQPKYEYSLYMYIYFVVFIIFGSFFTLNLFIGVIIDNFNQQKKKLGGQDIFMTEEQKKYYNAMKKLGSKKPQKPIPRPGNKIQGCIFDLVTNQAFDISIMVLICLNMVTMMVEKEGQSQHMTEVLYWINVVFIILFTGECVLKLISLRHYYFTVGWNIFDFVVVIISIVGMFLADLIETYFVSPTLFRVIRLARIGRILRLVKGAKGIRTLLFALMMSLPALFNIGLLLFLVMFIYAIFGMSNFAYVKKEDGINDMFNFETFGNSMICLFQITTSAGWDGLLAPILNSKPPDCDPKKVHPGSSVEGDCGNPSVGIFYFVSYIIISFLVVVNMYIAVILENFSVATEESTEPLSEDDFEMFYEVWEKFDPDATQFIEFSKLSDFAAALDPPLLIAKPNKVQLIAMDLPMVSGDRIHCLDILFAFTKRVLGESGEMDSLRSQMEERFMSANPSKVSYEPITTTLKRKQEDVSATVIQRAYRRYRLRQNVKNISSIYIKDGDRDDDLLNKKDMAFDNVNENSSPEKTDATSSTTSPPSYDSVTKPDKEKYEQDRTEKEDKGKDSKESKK
experiment-summary: Nav 1.7 in vitro PatchXpress (PX) assay
Assay type: cell-based
test-settings: in-vitro Nav 1.7 PX data
readout-type: IC50 (µM)
Provide only the numeric value, understood in µM.

// sample Cc1cc(C(=O)NS(C)(=O)=O)c(F)cc1-c1cccc(OC(F)(F)C(F)F)c1 , its IC50 was 5.84

// sample Cc1cc(Cl)cc(Cl)c1Oc1ncc(-c2ccc(C(=O)NS(C)(=O)=O)cc2Br)cc1Cl , its IC50 was 0.0275

// sample COc1cc(C(=O)NS(C)(=O)=O)c(F)cc1-c1cnc(O[C@H](C)Cc2ccccc2)c(Cl)c1 , its IC50 was 0.0553

// sample CS(=O)(=O)NC(=O)c1cc(OC(F)F)c(-c2cnc(Oc3c(F)ccc(F)c3F)c(Cl)c2)cc1F , its IC50 was 0.0733

// sample Cc1cc(C(=O)NS(C)(=O)=O)ccc1-c1cnc(Oc2c(C)cc(Cl)cc2Cl)c(Cl)c1 , its IC50 was 0.0782

// sample COc1ncc(F)cc1-c1cc(-c2cc(F)c(C(=O)NS(C)(=O)=O)cc2F)cnc1OCC(C)C , its IC50 was 0.81

// sample CC(C)C1CCCN1c1ncc(-c2ccc(C(=O)NS(C)(=O)=O)cc2OC(F)F)cc1Cl (racemic) , its IC50 was 0.0721

// sample CS(=O)(=O)NC(=O)c1ccc(-c2cnc(Oc3c(F)ccc(F)c3F)c(Cl)c2)c(Cl)c1 , its IC50 was 0.0734
